Test: acute subcutaneous toleration in mice
Conditions: mouse, in vivo, sc; subcutaneous, mice
Protocol: Compound III was administered subcutaneously to mice at doses of 100, 300 or 1000 mg/kg.
MEASURE: LD50

I'd like to know its LD50. The molecule in question is O=C(Nc1nnn[nH]1)c1cnc2sc3c(n2c1=O)CCCC3 [compound III]
> 1000 mg/kg

* * *

system: IgG; assay: passive cutaneous anaphylaxis (PCA) test, oral, IgG (hyperimmune antiserum) site; assay type: in vivo, rat; conditions: Table I, 10 mg./kg.
Values of Oral Activity (% of Protection) of Amides in the PCA Test, IgG 10 mg./kg. greater than or equal to 50% map to TRUE; values below map to FALSE.

{"COMPOUND": "CCc1c(C)sc2ncc(C(=O)Nc3nnn[nH]3)c(=O)n12 [Amide I, R1 = CH3, R2 = C2 H5]", "CLASS NAME": "TRUE"}
{"COMPOUND": "O=C(Nc1nnn[nH]1)c1cnc2sc3c(n2c1=O)CCCCC3 [Amide I, R1R2 = (CH2)5]", "CLASS NAME": "FALSE"}
{"COMPOUND": "O=C(Nc1nnn[nH]1)c1cnc2sc3c(n2c1=O)CCCCCC3 [Amide I, R1R2 = (CH2)6]", "CLASS NAME": "TRUE"}

Does Oral Activity (% of Protection) of Amides in the PCA Test, IgG 10 mg./kg. meet or surpass 50% for CC(C)c1csc2ncc(C(=O)Nc3nnn[nH]3)c(=O)n12 [Amide I, R1 = H, R2 = CH(CH3)2] ?
TRUE

Entry CC(C)(C)c1csc2ncc(C(=O)Nc3nnn[nH]3)c(=O)n12 [Amide I, R1 = H, R2 = C(CH3)3] : is its Oral Activity (% of Protection) of Amides in the PCA Test, IgG 10 mg./kg. no less than 50%?
FALSE

Item CCc1csc2ncc(C(=O)Nc3nnn[nH]3)c(=O)n12 [Amide I, R1 = H, R2 = C2 H5] with Oral Activity (% of Protection) of Amides in the PCA Test, IgG 10 mg./kg. of 50% or above?
FALSE
